Assay: Cyclic voltammetry of organic electron-transfer mediators (oxidation reduction potential vs Ag/AgCl)
Type: physicochemical
Conditions: 0.1M TBAP in DMSO
Record True whenever E1/2 (vs Ag/AgCl) is at -0.3 V or higher; record False when lower.

Given the entry N#Cc1cc2nc3c(=O)[nH]c(=O)nc-3[nH]c2cc1C#N [Chemical formula 8] , answer whether its E1/2 (vs Ag/AgCl) meets or surpasses -0.3 V.
False

Item: N#Cc1cc2nc3c(=O)[nH]c(=O)nc-3n(CCOCCO)c2cc1C#N [Chemical formula 7]
False

Now give it for N#Cc1cc2nc3c(=O)[nH]c(=O)nc-3n(Cc3ccccc3)c2cc1C#N [Chemical formula 3, 10-benzyl-7,8-dicyanoisoalloxazine] too.
True

Would you kindly repeat that for N#Cc1cc2nc3c(=O)[nH]c(=O)nc-3n(CCCCCO)c2cc1C#N [Chemical formula 6] ?
False

Please give the result for N#Cc1cc2nc3c(=O)[nH]c(=O)nc-3n(CCO)c2cc1C#N [Chemical formula 16] too.
False

Moving on to N#Cc1cc2nc3c(=O)[nH]c(=O)nc-3n(CCCS(=O)(=O)O)c2cc1C#N [Chemical formula 2]
True

====

Assay: Cyclic voltammetry of organic electron-transfer mediators (oxidation reduction potential vs Ag/AgCl)
Format: physicochemical
Conditions: 0.1M TBAP in CH3CN
Kindly supply the reported E1/2 (vs Ag/AgCl) values for the records listed here.
Express the result in V but write the number alone.

Quick one: E1/2 (vs Ag/AgCl) for `CC(C)(C)OC(=O)NCCCCCn1c2nc(=O)[nH]c(=O)c-2nc2cc(C#N)c(C#N)cc21` ?
−0.330

Follow-up entry: `N#Cc1cc2nc3c(=O)[nH]c(=O)nc-3n(CCCS(=O)(=O)O)c2cc1C#N`
−0.315

And `CC(C)(C)OC(=O)NCCCCCCn1c2nc(=O)[nH]c(=O)c-2nc2cc(C#N)c(C#N)cc21` ?
−0.330

Please answer likewise for `N#Cc1cc2nc3c(=O)[nH]c(=O)nc-3n(CCO)c2cc1C#N`
−0.319
